Tested on: Ax20 peptidase (SEQ ID NO: 2)
Assay: Inhibition of Pro-Gly cleavage by recombinant Ax20 peptidase, fluorescamine detection of free NH2
Type: biochemical, Corynebacterium sp. Ax20
Settings: test compound 62.5 microM; Pro-Gly 1 mM; 1 μg/ml peptidase; 60 min at 37° C.
measuredAttribute: Inhibition of release of free NH2 groups from Pro-Gly (% inhibition)

# molecule, targetOrSystem, unitsLabel, reportedResult
rows = [
    ("O=C(O)c1cccc(C(=O)O)n1 [pyridine-2,6-dicarboxylic acid]", "Ax20 peptidase (SEQ ID NO: 2)", "% inhibition", 100.9),
    ("O=C(O)CSCCSCC(=O)O [2,2′-Ethylendithio-diacetic acid]", "Ax20 peptidase (SEQ ID NO: 2)", "% inhibition", "−5.3"),
    ("c1cnc2c(c1)ccc1cccnc12 [o-Phenantrolin]", "Ax20 peptidase (SEQ ID NO: 2)", "% inhibition", 100.0),
    ("O=C(O)CNCCNCC(=O)O [ethylendiamine-N,N′-diacetic acid]", "Ax20 peptidase (SEQ ID NO: 2)", "% inhibition", 93.9),
    ("O=C(O)CN(CCN(CC(=O)O)CC(=O)O)CC(=O)O [Ethylenediaminetetraacetic acid]", "Ax20 peptidase (SEQ ID NO: 2)", "% inhibition", 101.4),
]

----------
Reported values of Inhibition of release of free NH2 groups from Pro-Gly for individual entries
Tested on: Ax20 peptidase (SEQ ID NO: 2)
Experiment: Inhibition of Pro-Gly cleavage by recombinant Ax20 peptidase, fluorescamine detection of free NH2
Type: biochemical, Corynebacterium sp. Ax20
Settings: test compound 15.625 microM; Pro-Gly 1 mM; 1 μg/ml peptidase; 60 min at 37° C.
measuredAttribute: Inhibition of release of free NH2 groups from Pro-Gly (% inhibition)

# molecule, reportedResult
data = [
    ("c1cnc2c(c1)ccc1cccnc12 [o-Phenantrolin]", 83.9),
    ("O=C(O)c1cccc(C(=O)O)n1 [pyridine-2,6-dicarboxylic acid]", 72.4),
    ("O=C(O)CNCCNCC(=O)O [ethylendiamine-N,N′-diacetic acid]", 65.7),
    ("O=C(O)CSCCSCC(=O)O [2,2′-Ethylendithio-diacetic acid]", 0.1),
    ("O=C(O)CN(CCN(CC(=O)O)CC(=O)O)CC(=O)O [Ethylenediaminetetraacetic acid]", 101.0),
]

----------
Target: AMRE enzyme (Nα-acyl-glutamine-aminoacylase) (Corynebacterium striatum)
Construct: made in house
Sequence (Q8GGD4 whole entry): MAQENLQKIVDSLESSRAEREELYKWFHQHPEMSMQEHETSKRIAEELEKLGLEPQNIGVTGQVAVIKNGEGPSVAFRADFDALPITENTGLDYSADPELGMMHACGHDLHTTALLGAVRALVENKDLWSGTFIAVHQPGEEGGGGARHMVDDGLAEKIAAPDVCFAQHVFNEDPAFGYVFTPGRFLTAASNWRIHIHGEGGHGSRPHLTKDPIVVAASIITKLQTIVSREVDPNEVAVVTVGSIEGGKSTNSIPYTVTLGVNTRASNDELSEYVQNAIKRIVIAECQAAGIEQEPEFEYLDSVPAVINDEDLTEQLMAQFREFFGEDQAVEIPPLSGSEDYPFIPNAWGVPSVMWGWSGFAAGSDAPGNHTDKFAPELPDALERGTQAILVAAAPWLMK
Experiment: Inhibition of AMRE-catalysed release of free NH2 groups from N-Lauroyl-glutamine
Assay type: biochemical
Settings: test compound 15.625 microM
Values of Inhibition of release of free NH2 groups from N-Lauroyl-glutamine (catalyzed by AMRE) greater than or equal to 30 % inhibition map to y; values below map to n.

# structureSmilesString, categoryLabel
measured = [
    ("O=C(O)CSCCSCC(=O)O", "n"),
    ("O=C(O)CN(CCN(CC(=O)O)CC(=O)O)CC(=O)O", "y"),
    ("O=C(O)c1cccc(C(=O)O)n1", "n"),
    ("O=C(O)CNCCNCC(=O)O", "n"),
    ("c1cnc2c(c1)ccc1cccnc12", "y"),
]

----------
Target: AMRE enzyme (Nα-acyl-glutamine-aminoacylase) (Corynebacterium striatum)
Construct: made in house
Test: Inhibition of AMRE-catalysed release of free NH2 groups from N-Lauroyl-glutamine
Format: biochemical
Conditions: test compound 62.5 microM
Reported values of Inhibition of release of free NH2 groups from N-Lauroyl-glutamine (catalyzed by AMRE) for individual entries
measuredAttribute: Inhibition of release of free NH2 groups from N-Lauroyl-glutamine (catalyzed by AMRE) (% inhibition)

# molecule, reportedResult
rows = [
    ("O=C(O)CSCCSCC(=O)O [2,2′-Ethylendithio-diacetic acid]", 19.6),
    ("O=C(O)c1cccc(C(=O)O)n1 [pyridine-2,6-dicarboxylic acid]", 72.2),
    ("O=C(O)CNCCNCC(=O)O [ethylendiamine-N,N′-diacetic acid]", 42.7),
    ("O=C(O)CN(CCN(CC(=O)O)CC(=O)O)CC(=O)O [Ethylenediaminetetraacetic acid]", 61.6),
    ("c1cnc2c(c1)ccc1cccnc12 [o-Phenantrolin]", 96.1),
]
